- test: chemical genetic growth profiling, strain panel (AID 1159580);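 further: tested at 20 µM; growth read once vehicle control cultures reached saturation at 30 °C; 1 = growth at the plate median or of vehicle wells; lower values mean less growth of the strain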
- condition: S. cerevisiae deletion strains, growth OD, locus YKL085W, strain MDH1 (second series), active compounds read low
Hit rate of the full screen: of about 5,500 compounds, about 2,000 (36%) were called active. About 18% were inconclusive and are not listed. The list shows a part of the results.
Listed below: normalized growth values for each entry.

Some entries whose results are on file:
>  <compound>
CCOC(=O)NNc1nncc2ccccc12

>  <normalized growth>
0.992 (inactive)

$$$$
>  <compound>
NC(Cn1ccc(=O)c(O)c1)C(=O)O (stereo not given)

>  <normalized growth>
0.993 (inactive)

$$$$
>  <compound>
CNCCCC12CCC(c3ccccc31)c1ccccc12

>  <normalized growth>
0.982 (inactive)

$$$$

Look up normalized growth for this compound: CNNC
1.01 (inactive)

Look up normalized growth for this compound: CN[C@@H]1[C@H](O)[C@H](NC)[C@H]2O[C@@]3(O)C(=O)C[C@@H](C)O[C@H]3O[C@@H]2[C@H]1O
1.01 (inactive)

---

- test: chemical genetic growth profiling, strain panel (AID 1159580);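 further: tested at 20 µM; growth read once vehicle control cultures reached saturation at 30 °C; 1 = growth at the plate median or of vehicle wells; lower values mean less growth of the strain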
- condition: S. cerevisiae deletion strains, growth OD, locus YPR163C, strain tif3, active compounds read low
About 2,000 (36%) of roughly 5,500 compounds were called active. Inconclusive results (about 18%) are left out. The list shows a part of the results.
Rule: normalized growth below 1 gives True. Equal to or above 1 gives False.

Hello, is normalized growth of the following compound strictly smaller than 1? CC(CCc1ccccc1)NCC(O)c1ccc(O)c(C(N)=O)c1 (centres undefined)
False

Hello, is normalized growth of the following compound strictly smaller than 1? CC(N=C(NC#N)Nc1ccncc1)C(C)(C)C (centres undefined)
False

Hello, is normalized growth of the following compound strictly smaller than 1? CC1=CC(=O)c2ccccc2C1=O
True

---

- test: chemical genetic growth profiling, strain panel (AID 1159580);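 further: tested at 20 µM; growth read once vehicle control cultures reached saturation at 30 °C; 1 = growth at the plate median or of vehicle wells; lower values mean less growth of the strain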
- condition: S. cerevisiae deletion strains, growth OD, locus YCL029C, strain bik1, active compounds read low
The whole screen tested about 5,500 compounds, of which about 2,000 (36%) were called active. Not shown: some 18% with an inconclusive outcome. Some of the results follow.
Listed below: normalized growth values for each entry.
Reply with the value as a number alone.

Some entries whose results are on file:
>  <molecule>
CC(C)CCCC(C)C1CCC2C3CC(=O)[C@H]4C[C@@H](O)CC[C@]4(C)C3CC[C@]12C (stereo not given in full)

>  <recordedValue>
1.01

$$$$
>  <molecule>
CC(=O)O[C@H]1CC[C@@]2(C)C(=CC(=O)C3C4CCC(C(C)CCCC(C)C)[C@@]4(C)CCC32)C1 (stereo not given in full)

>  <recordedValue>
0.986

$$$$
>  <molecule>
CCCN(CCC)S(=O)(=O)c1ccc(C(=O)O)cc1

>  <recordedValue>
1.02

$$$$
>  <molecule>
NC1=NCCN1CC(=O)O

>  <recordedValue>
0.997

$$$$

Look up normalized growth for this molecule: CC(C)CCCC(C)[C@H]1CCC2C3CC[C@@H]4C[C@H](O)CC[C@]4(C)C3CC[C@@]21C (stereo not given in full)
1.02

Look up normalized growth for this molecule: Nc1ccc(S(=O)(=O)NC(=O)c2ccccc2)cc1
1.02

Look up normalized growth for this molecule: CC(C)CCCC(C)[C@H]1CCC2C3CC=C4CC(=O)CC[C@]4(C)C3CC[C@@]21C (stereo not given in full)
0.999

Look up normalized growth for this molecule: NC(=O)NC(=O)Cc1ccccc1
0.997

Look up normalized growth for this molecule: CC(=O)OCC(=O)[C@@]1(O)[C@H](C)CC2C3CCC4=CC(=O)C=C[C@]4(C)[C@@]3(F)[C@@H](O)C[C@@]21C (stereo not given in full)
1

Look up normalized growth for this molecule: CCOC(=O)[C@H](CCc1ccccc1)N[C@@H](C)C(=O)N1CCC[C@H]1C(=O)O
1.02

Look up normalized growth for this molecule: NCC(N)C(=O)c1ccccc1 (stereo not given)
0.995

Look up normalized growth for this molecule: CCCc1c(OCCCCc2nn[nH]n2)ccc(C(C)=O)c1O
0.997

Look up normalized growth for this molecule: CC(C)CCCC(C)C1CCC2C3=CC[C@H]4C[C@@H](O)CC[C@]4(C)C3CC[C@@]21C (stereo not given in full)
0.994

Look up normalized growth for this molecule: O=C(NCO)c1cccnc1
0.971

Look up normalized growth for this molecule: CC12CCC(=O)C=C1CCC1C2[C@@H](O)CC2(C)C1CC[C@]2(O)C(=O)COP(=O)(O)O (stereo not given in full)
1.01

Value source: PubChem BioAssay AID1159580
